# Target Of Assay: PIK3CG (Homo sapiens, UniProt P48736)
# Construct: purchased KinomeScan, a division of Ambit Biosciences
# Sequence (P48736 whole entry): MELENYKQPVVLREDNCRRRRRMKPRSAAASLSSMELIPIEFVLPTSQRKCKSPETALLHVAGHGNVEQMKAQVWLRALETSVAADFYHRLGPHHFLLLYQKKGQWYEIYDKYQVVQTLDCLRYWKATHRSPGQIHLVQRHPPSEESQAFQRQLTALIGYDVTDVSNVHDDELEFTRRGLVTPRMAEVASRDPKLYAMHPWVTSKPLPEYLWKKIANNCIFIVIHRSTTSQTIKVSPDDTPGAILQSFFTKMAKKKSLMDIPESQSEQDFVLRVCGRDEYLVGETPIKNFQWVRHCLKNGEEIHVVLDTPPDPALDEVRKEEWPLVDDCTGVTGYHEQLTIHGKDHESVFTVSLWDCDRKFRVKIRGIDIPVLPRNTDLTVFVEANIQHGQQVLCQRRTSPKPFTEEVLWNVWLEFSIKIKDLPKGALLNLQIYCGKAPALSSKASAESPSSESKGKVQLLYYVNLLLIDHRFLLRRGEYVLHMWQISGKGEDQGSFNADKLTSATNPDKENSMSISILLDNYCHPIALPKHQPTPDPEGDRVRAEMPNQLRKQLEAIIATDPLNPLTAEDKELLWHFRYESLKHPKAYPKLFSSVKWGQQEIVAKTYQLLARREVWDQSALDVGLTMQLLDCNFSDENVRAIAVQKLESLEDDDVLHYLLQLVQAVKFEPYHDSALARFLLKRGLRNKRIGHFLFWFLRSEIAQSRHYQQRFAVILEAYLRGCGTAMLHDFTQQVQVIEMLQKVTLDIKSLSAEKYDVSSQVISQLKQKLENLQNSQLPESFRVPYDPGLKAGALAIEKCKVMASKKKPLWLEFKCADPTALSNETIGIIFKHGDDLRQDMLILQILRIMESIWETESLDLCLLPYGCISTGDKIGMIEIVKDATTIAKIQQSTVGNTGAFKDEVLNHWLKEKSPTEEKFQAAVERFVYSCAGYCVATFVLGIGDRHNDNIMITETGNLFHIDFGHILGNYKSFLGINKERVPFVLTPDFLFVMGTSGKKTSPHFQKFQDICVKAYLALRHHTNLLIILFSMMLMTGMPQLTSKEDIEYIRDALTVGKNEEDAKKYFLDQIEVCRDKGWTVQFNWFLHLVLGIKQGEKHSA
# Test Protocol: KinomeScan competition binding assay
# Experimental Context: 10 μM compound
Short version: POC ligand binding, PIK3CG at least 80 POC is yes, less is no.

- Molecule: "N#Cc1ccc2ncnc(NCc3ccc(Cl)cc3)c2c1 [compound 20]"
  Assigned Class: "no"
- Molecule: "N#Cc1ccc2ncnc(NCc3ccc4ccccc4c3)c2c1 [compound 43]"
  Assigned Class: "no"
- Molecule: "N#Cc1ccc2ncnc(NCCc3ccccc3)c2c1 [compound 1]"
  Assigned Class: "no"

State whether the measured POC ligand binding, PIK3CG reaches 80 POC, counting equality as reaching it, for CCCNc1ncnc2ccc(N3CCOCC3)cc12 [compound 46] yes

State whether the measured POC ligand binding, PIK3CG reaches 80 POC, counting equality as reaching it, for COc1ccc2ncnc(NCCc3ccccc3)c2c1 [compound 44] yes

State whether the measured POC ligand binding, PIK3CG reaches 80 POC, counting equality as reaching it, for N#Cc1ccc2ncnc(NCc3ccc4ccccc4c3)c2c1 [compound 14] no

State whether the measured POC ligand binding, PIK3CG reaches 80 POC, counting equality as reaching it, for N#Cc1ccc2ncnc(NCCc3ccc4ccccc4c3)c2c1 [compound 26] no

---

# Target Of Assay: SLK (Homo sapiens, UniProt Q9H2G2)
# Construct: purchased KinomeScan, a division of Ambit Biosciences
# Sequence (Q9H2G2 whole entry): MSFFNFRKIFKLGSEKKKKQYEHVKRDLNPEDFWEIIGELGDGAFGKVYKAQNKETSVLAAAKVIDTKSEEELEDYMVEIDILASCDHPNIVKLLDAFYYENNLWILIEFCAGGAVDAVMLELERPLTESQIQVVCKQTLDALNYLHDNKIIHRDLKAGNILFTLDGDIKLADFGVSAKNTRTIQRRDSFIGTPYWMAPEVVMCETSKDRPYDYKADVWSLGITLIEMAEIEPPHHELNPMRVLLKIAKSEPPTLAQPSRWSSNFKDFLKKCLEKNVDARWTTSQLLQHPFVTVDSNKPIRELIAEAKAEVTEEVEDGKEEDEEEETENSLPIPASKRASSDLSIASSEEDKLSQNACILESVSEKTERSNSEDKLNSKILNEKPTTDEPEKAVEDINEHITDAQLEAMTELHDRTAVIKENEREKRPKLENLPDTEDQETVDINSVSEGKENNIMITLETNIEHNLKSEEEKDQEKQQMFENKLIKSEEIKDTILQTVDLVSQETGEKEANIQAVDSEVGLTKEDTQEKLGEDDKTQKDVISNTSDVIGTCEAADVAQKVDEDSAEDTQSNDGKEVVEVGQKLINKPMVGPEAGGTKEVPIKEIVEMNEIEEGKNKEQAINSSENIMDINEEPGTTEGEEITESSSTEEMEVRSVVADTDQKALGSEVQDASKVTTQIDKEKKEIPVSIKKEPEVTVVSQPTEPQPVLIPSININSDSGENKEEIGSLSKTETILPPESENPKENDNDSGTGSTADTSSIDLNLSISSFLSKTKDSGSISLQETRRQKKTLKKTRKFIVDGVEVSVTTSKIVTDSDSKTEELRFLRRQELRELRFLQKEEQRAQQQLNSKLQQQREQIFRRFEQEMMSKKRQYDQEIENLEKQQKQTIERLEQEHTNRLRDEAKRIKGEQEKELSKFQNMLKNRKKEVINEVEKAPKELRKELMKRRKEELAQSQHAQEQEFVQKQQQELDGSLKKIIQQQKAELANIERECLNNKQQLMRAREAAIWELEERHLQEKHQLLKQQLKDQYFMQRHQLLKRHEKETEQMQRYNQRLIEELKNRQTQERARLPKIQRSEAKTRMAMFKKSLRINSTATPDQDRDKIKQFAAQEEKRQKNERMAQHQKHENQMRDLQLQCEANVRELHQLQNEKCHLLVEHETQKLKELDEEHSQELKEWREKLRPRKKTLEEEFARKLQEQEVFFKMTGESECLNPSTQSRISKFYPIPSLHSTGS
# Test Protocol: KinomeScan competition binding assay
# Experimental Context: 10 μM compound
Property: POC ligand binding, SLK; scope: individual molecules
Provide only the numeric value, understood in POC.

// below: answered molecules
- Smiles Code: "COc1ccc2ncnc(NCCc3ccccc3)c2c1"
  Value Measured: 43
- Smiles Code: "N#Cc1ccc2ncnc(NCCc3ccccc3)c2c1"
  Value Measured: 11
- Smiles Code: "N#Cc1ccc2ncnc(NCc3ccc(Cl)cc3)c2c1"
  Value Measured: 61

Assign POC ligand binding, SLK to the following record: "CCCNc1ncnc2ccc(N3CCOCC3)cc12" 88

Assign POC ligand binding, SLK to the following record: "CC(C)CNc1ncnc2ccc(C(F)(F)F)cc12" 59

Assign POC ligand binding, SLK to the following record: "N#Cc1ccc2ncnc(NCCc3ccc4ccccc4c3)c2c1" 73

---

# Target Of Assay: HIPK3 (Homo sapiens, UniProt Q9H422)
# Construct: purchased KinomeScan, a division of Ambit Biosciences
# Sequence (Q9H422 whole entry): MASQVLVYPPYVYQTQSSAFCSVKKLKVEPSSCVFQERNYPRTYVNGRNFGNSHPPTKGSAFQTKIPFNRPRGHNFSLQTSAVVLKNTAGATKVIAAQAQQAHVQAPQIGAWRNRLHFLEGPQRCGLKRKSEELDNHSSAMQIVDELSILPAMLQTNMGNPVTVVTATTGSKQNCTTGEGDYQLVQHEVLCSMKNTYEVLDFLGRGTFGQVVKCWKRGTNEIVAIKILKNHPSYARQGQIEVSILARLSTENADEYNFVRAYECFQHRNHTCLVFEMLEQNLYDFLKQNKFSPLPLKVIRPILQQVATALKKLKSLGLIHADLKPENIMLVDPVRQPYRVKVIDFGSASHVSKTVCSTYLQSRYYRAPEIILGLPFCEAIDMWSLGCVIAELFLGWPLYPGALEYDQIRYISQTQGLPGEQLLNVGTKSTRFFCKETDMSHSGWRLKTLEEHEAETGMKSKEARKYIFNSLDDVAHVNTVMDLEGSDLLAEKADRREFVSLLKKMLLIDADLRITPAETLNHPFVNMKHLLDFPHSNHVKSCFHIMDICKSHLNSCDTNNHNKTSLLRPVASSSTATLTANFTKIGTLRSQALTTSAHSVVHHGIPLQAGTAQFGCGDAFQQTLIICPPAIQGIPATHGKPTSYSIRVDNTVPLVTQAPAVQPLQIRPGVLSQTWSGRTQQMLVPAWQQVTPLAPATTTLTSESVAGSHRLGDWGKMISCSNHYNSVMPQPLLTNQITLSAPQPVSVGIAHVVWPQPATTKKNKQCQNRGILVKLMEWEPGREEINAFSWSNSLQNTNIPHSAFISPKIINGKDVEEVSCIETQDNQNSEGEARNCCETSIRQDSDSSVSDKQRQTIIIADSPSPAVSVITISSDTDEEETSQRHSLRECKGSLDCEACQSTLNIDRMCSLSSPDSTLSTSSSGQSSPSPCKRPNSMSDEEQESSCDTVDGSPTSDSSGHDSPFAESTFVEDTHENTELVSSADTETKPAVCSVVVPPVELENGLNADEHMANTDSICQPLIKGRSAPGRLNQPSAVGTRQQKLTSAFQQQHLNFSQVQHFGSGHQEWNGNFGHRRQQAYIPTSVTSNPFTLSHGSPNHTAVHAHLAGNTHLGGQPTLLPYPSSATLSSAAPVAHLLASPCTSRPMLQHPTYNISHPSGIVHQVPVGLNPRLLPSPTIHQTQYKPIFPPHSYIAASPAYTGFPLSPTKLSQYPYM
# Test Protocol: KinomeScan competition binding assay
# Experimental Context: 10 μM compound
# Excerpt: This similarity led us to test SNX14 for the ability to inhibit 285 kinases, using the services of KinaseProfiler of Millipore Corporation (285 kinases). […] The KINOMEscan assay has been described in detail in Fabian et al., Nat. Biotechnol. 23: 329 (2005) and Karaman et al., Nat. Biotechnol. 26: 127 (2008). The KinomeScan assay is based on a competition binding assay that quantitatively measures the ability of a compound to compete with an immobilized, ATP site directed ligand. […]
Short version: POC ligand binding, HIPK3 at least 30 POC is y, less is n.

- Smiles Code: "COc1ccc2ncnc(NCCc3ccccc3)c2c1"
  Assigned Class: "y"
- Smiles Code: "CC(C)CNc1ncnc2ccc(C(F)(F)F)cc12"
  Assigned Class: "n"
- Smiles Code: "N#Cc1ccc2ncnc(NCCc3ccccc3)c2c1"
  Assigned Class: "n"
- Smiles Code: "N#Cc1ccc2ncnc(NCCc3ccc4ccccc4c3)c2c1"
  Assigned Class: "y"
- Smiles Code: "CCCNc1ncnc2ccc(N3CCOCC3)cc12"
  Assigned Class: "y"

# ---- query compound ----
State whether the measured POC ligand binding, HIPK3 reaches 30 POC, counting equality as reaching it, for "N#Cc1ccc2ncnc(NCc3ccc(Cl)cc3)c2c1" n
